target_desc: Human recombinant MMP-13 (Homo sapiens, UniProt P45452)
Construct: made in house; host or cells: baculovirus / insect cells
assay_notes: In vitro MMP inhibition, Ki determination (fluorogenic substrate II)
Assay type: biochemical
condition_details: value in parenthesis
readout: Ki (nM)

[I] O=C(NO)C1(S(=O)(=O)c2ccc(OCCc3cccc(-c4cccc(F)c4)c3)cc2)CCOCC1
[II] O=C(NO)C1(S(=O)(=O)c2ccc(OCCc3cccc(-c4cc(Cl)cc(Cl)c4)c3)cc2)CCOCC1
[III] Cc1cc(-c2cccc(CCCOc3ccc(S(=O)(=O)C4(C(=O)NO)CCOCC4)cc3)c2)ccc1F
[IV] O=C(NO)C1(S(=O)(=O)c2ccc(OCCc3cccc(-c4ccc(OC(F)(F)F)cc4)c3)cc2)CCOCC1
Ask | Please order the records by their reported Ki, lowest number first. Would you mind listing the labels in the order requested?
Reply | I, III, IV, II

meta.source: patent US20040024024A1
